Tested on: Cryptococcus neoformans
Conditions: Concentration 32 ug.mL-1; ASSAY_TEST Inhibition of Fungal Growth; detection method Resazurin; Absorption (OD600-OD570); plate type 384well; NBS; CORNING #3640
Description: Antifungal activity against Cryptococcus neoformans H99 ATCC 208821 (CO-ADD:FG_002); MIC in YNB media using NBS plates, by Resazurin OD(600-570)
Measured potencies and affinities stand elsewhere.
property measured: Inhibition (%)
Output spec: scalar in %, unitless text.

Task: Find the measured Inhibition of O=C(CCc1nnc2c(N3CCCCC3)nc3ccccc3n12)NCc1ccc(Cl)cc1 with Cryptococcus neoformans as test system.
Result: -23.16

Task: Find the measured Inhibition of Cc1ccc(CN(c2cc(C)cc(C)c2)S(=O)(=O)c2cccn3c(C)nnc23)cc1 with Cryptococcus neoformans as test system.
Result: -12.99

Task: Find the measured Inhibition of Cc1ccc(-c2ccc3nn(Cc4ccc(F)cc4Cl)c(=O)n3n2)cc1C with Cryptococcus neoformans as test system.
Result: -24.45

Task: Find the measured Inhibition of CCOc1ccccc1NC(=O)Cn1nc2c(Sc3ccccc3)nccn2c1=O with Cryptococcus neoformans as test system.
Result: -18.53

Task: Find the measured Inhibition of N#CCSc1nnc2c(=O)n(-c3ccccc3)ccn12 with Cryptococcus neoformans as test system.
Result: -7.27

Task: Find the measured Inhibition of CSc1ccc(CNC(=O)Cn2nc3c(Oc4ccccc4)nccn3c2=O)cc1 with Cryptococcus neoformans as test system.
Result: -8.38

---

Record form. Attribute: Inhibition. Fill in for each entry.
Test system: Cryptococcus neoformans
Conditions: Concentration 32 ug.mL-1; ASSAY_TEST Inhibition of Fungal Growth; detection method Resazurin; Absorption (OD600-OD570); plate type 384well; NBS; CORNING #3640
Potency and affinity values are given separately.
Output spec: scalar in %, unitless text.

Task: Give the measured Inhibition for COc1ccc(-c2cc3c4nnc(SCC(=O)Nc5cccc(C)c5C)n4ccn3n2)cc1
Result: -22.8

Task: Give the measured Inhibition for COc1ccccc1-n1ccn2c(SCC#N)nnc2c1=O
Result: -18.74

Task: Give the measured Inhibition for Cc1ccc(F)cc1NC(=O)CSc1nc2ccccc2n2c(C(C)C)nnc12
Result: -18.14

Task: Give the measured Inhibition for CCOc1ccccc1NC(=O)Cn1nc2c(Oc3ccccc3)nccn2c1=O
Result: -10.21

Task: Give the measured Inhibition for CCc1nnc2c(=O)n(CC(=O)Nc3ccc(C(C)C)cc3)c3ccccc3n12
Result: -28.42

Task: Give the measured Inhibition for Cc1ccc(NC(=O)CSc2nnc3n(CC4CCCO4)c(=O)c4sccc4n23)cc1F (stereo not given)
Result: -15.18

Task: Give the measured Inhibition for O=C(Cn1nc2c3cc(-c4ccc(F)cc4)nn3ccn2c1=O)Nc1ccc(Br)cc1
Result: 4.1

Task: Give the measured Inhibition for COc1ccc(NC(=O)Cn2nc3c(Sc4ccccc4)nccn3c2=O)cc1Cl
Result: 2.33

Task: Give the measured Inhibition for Cc1nnc2c(S(=O)(=O)N(Cc3ccc(F)cc3)c3ccc(F)c(F)c3)cccn12
Result: -10.38

Task: Give the measured Inhibition for COc1ccc(NC(=O)c2ccc3nn(CC(=O)Nc4ccc(C(C)C)cc4)c(=O)n3c2)cc1
Result: -13.36

---

Tested on: Klebsiella pneumoniae
Details: Concentration 32 ug.mL-1;; ASSAY_TEST Inhibition of Bacterial Growth; detection method Absorption (OD600); MEDIA CAMHB; plate type 384well; NBS; CORNING #3640; time 18 hr
Description: Antibacterial activity against Klebsiella pneumoniae MDR ATCC 70063 (CO-ADD:GN_003); MIC in CAMBH media using NBS plates, by OD(600)
Entries with a potency or affinity are not part of this list.
property measured: Inhibition (%)
Output spec: scalar in %, unitless text.

Task: Find the measured Inhibition of CCc1ccccc1NC(=O)Cn1nc2c(Sc3ccc(C)cc3C)nccn2c1=O with Klebsiella pneumoniae as test system.
Result: 5.69

Task: Find the measured Inhibition of COc1cccc(-n2ccn3c(SCC(=O)c4c[nH]c5ccccc45)nnc3c2=O)c1 with Klebsiella pneumoniae as test system.
Result: 10.78

Task: Find the measured Inhibition of COC(=O)c1ccc(NC(=O)Cn2nc3ccc(C(=O)NCc4ccccc4)cn3c2=O)cc1 with Klebsiella pneumoniae as test system.
Result: 7.68

Task: Find the measured Inhibition of CC(C)CCn1c(=O)c2ccc(C(=O)NC3CCCCC3)cc2n2c(=O)n(CC#N)nc12 with Klebsiella pneumoniae as test system.
Result: 4.36

Task: Find the measured Inhibition of CC(=O)c1cccc(NC(=O)Cn2c(=O)c3nnc(C(C)C)n3c3ccccc32)c1 with Klebsiella pneumoniae as test system.
Result: 4.91

Task: Find the measured Inhibition of CCCCn1c(=O)c2sccc2n2c(=O)n(CC(=O)N3CCC(Cc4ccccc4)CC3)nc12 with Klebsiella pneumoniae as test system.
Result: 0.07

Task: Find the measured Inhibition of CCCCn1c(=O)c2sccc2n2c(SCc3cccc(C(F)(F)F)c3)nnc12 with Klebsiella pneumoniae as test system.
Result: -0.52

Task: Find the measured Inhibition of COc1cccc(-n2ccn3c(SCC(=O)Nc4ccc5c(c4)OCCO5)nnc3c2=O)c1 with Klebsiella pneumoniae as test system.
Result: 14.27

Task: Find the measured Inhibition of COc1ccc(N2CCN(C(=O)Cn3nc4c(Oc5ccccc5)nccn4c3=O)CC2)cc1 with Klebsiella pneumoniae as test system.
Result: 15.08

---

Record form. Attribute: Inhibition. Fill in for each entry.
Tested on: Klebsiella pneumoniae
Settings: Concentration 32 ug.mL-1;; ASSAY_TEST Inhibition of Bacterial Growth; detection method Absorption (OD600); MEDIA CAMHB; plate type 384well; NBS; CORNING #3640; time 18 hr
Results with a measured potency or affinity are listed apart.
Output spec: scalar in %, unitless text.

Task: Give the measured Inhibition for CCCNC(=O)Cn1nc2cc(C)nc(Nc3cc(C)cc(C)c3)n2c1=O
Result: 18.12

Task: Give the measured Inhibition for Cc1ccc(Cl)cc1NC(=O)CSc1nnc2n(CC3CCCO3)c(=O)c3sccc3n12 (stereo not given)
Result: 10.58

Task: Give the measured Inhibition for CCc1ccc(N(Cc2ccccc2F)S(=O)(=O)c2cccn3c(C)nnc23)cc1
Result: 6.64

Task: Give the measured Inhibition for O=c1n(Cc2ccccc2F)nc2ccc(S(=O)(=O)N3CCCCCC3)cn12
Result: 2.58

Task: Give the measured Inhibition for N#Cc1ccccc1NC(=O)Cn1nc2c(Oc3ccccc3)nccn2c1=O
Result: 2.81

Task: Give the measured Inhibition for O=C(CSc1nnc2c(=O)n(Cc3ccc(F)cc3)ccn12)NC1CCCC1
Result: 8.75

Task: Give the measured Inhibition for COc1cc(NC(=O)Cn2nc3ccc(SCc4ccc(Cl)cc4)nn3c2=O)cc(OC)c1
Result: 1.27

Task: Give the measured Inhibition for Cc1ccc(-n2ccn3c(SCC(=O)N4CCN(c5ccc(F)cc5)CC4)nnc3c2=O)cc1C
Result: 1.76

Task: Give the measured Inhibition for Cc1ccc(Sc2nccn3c(=O)n(CC(=O)Nc4ccc(Br)cc4C)nc23)c(C)c1
Result: -0.35

Task: Give the measured Inhibition for CCc1cccc(NC(=O)Cn2c(=O)c3nnc(C(C)C)n3c3ccccc32)c1
Result: 9.33

Task: Give the measured Inhibition for O=C(NCc1ccccc1)c1ccc2nn(CC(=O)N3CCN(c4ccc(F)cc4)CC3)c(=O)n2c1
Result: -0.37

Task: Give the measured Inhibition for O=C(Cn1nc2n(Cc3ccc(F)cc3)c(=O)c3ccccc3n2c1=O)Nc1ccc2c(c1)OCO2
Result: 8.5

Task: Give the measured Inhibition for C=Cc1ccc(CN(c2cccc(F)c2)S(=O)(=O)c2ccc3nnc(C)n3c2)cc1
Result: 2.09

Task: Give the measured Inhibition for O=c1c2sccc2n2c(=O)n(Cc3cccc(Cl)c3)nc2n1Cc1cccs1
Result: 3.75

Task: Give the measured Inhibition for O=C(NCc1ccccc1)c1ccc2nn(CC(=O)N3CCN(c4ccccc4)CC3)c(=O)n2c1
Result: 13.57

Task: Give the measured Inhibition for COc1ccc(C(=O)CSc2nnc3c(=O)n(-c4cccc(OC)c4)ccn23)cc1
Result: 12.72

Task: Give the measured Inhibition for Cc1ccc(CNC(=O)CSc2nnc3c(=O)n(-c4ccccc4)ccn23)cc1
Result: 13.24

Task: Give the measured Inhibition for Cc1ccc(-c2cc3c4nn(CC(=O)Nc5ccc(C)c(Cl)c5)c(=O)n4ccn3n2)cc1C
Result: 10.5

Task: Give the measured Inhibition for CC(C)Cn1c(=O)c2sccc2n2c(=O)n(CC(N)=O)nc12
Result: -1.97

Task: Give the measured Inhibition for Cc1cccc(Oc2nc3ccccc3n3c(=O)n(CC(=O)NCc4ccco4)nc23)c1C
Result: 3.72

---

Test system: Cryptococcus neoformans
Details: Concentration 32 ug.mL-1; ASSAY_TEST Inhibition of Fungal Growth; detection method Resazurin; Absorption (OD600-OD570); plate type 384well; NBS; CORNING #3640
Potency and affinity values are given separately.
Just a reminder that ties go to f: only Inhibition strictly below -10% counts as t.

Task: Strictly below -10% in Inhibition? O=C(CSc1nnc2c(=O)n(Cc3ccc(F)cc3)ccn12)NCC1CCCO1 (stereo not given)
Result: t

Task: Strictly below -10% in Inhibition? COc1cccc(-n2ccn3c(SCC(=O)N4CCN(c5ccc(F)cc5)CC4)nnc3c2=O)c1
Result: t

Task: Strictly below -10% in Inhibition? COc1cccc(-c2nc(CSc3nc4ccccc4n4c(C(C)C)nnc34)c(C)o2)c1OC
Result: f

Task: Strictly below -10% in Inhibition? Cc1ccc(C)c(NC(=O)Cn2nc3c4cc(-c5ccc(C)c(C)c5)nn4ccn3c2=O)c1
Result: t

Task: Strictly below -10% in Inhibition? CCOc1ccc(NC(=O)CSc2nnc3c(=O)n(-c4ccc(OCC)cc4)ccn23)cc1
Result: t

Task: Strictly below -10% in Inhibition? Cc1ccc(NC(=O)Cn2nc3ccc(-c4ccc(Cl)cc4)nn3c2=O)cc1
Result: f

Task: Strictly below -10% in Inhibition? CCc1nnc2c(SCC(=O)Nc3cccc(Br)c3)nc3ccccc3n12
Result: t

Task: Strictly below -10% in Inhibition? CCc1nnc2ccc(S(=O)(=O)N(Cc3cccc(OC)c3)c3cccc(F)c3)cn12
Result: f

Task: Strictly below -10% in Inhibition? CCc1nnc2ccc(S(=O)(=O)N(Cc3ccccc3F)c3ccc(OC)cc3)cn12
Result: f

Task: Strictly below -10% in Inhibition? CCOc1ccc(-n2ccn3c(SCC(=O)c4cccc(Cl)c4)nnc3c2=O)cc1
Result: f

Task: Strictly below -10% in Inhibition? O=c1c2nnc(SCc3ccccc3F)n2ccn1-c1ccc(F)cc1
Result: f

Task: Strictly below -10% in Inhibition? Cc1cc(C)c(NC(=O)Cn2nc3c4c5c(sc4ncn3c2=O)CCCC5)c(C)c1
Result: t

Task: Strictly below -10% in Inhibition? CCCCOc1ccc(-c2cc3c4nnc(SCC(=O)Nc5ccc(C)c(C)c5)n4ccn3n2)cc1
Result: f

Task: Strictly below -10% in Inhibition? CCCc1nnc2c(=O)n(CC(=O)Nc3ccc(Cl)c(Cl)c3)c3ccccc3n12
Result: t

Task: Strictly below -10% in Inhibition? Cc1cc(C)cc(Oc2nc3ccccc3n3c(=O)n(CC(=O)Nc4ccc5c(c4)OCO5)nc23)c1
Result: t

Task: Strictly below -10% in Inhibition? COC(=O)c1cccc(NC(=O)Cn2nc3c(Sc4ccc(C)cc4C)nccn3c2=O)c1
Result: t

Task: Strictly below -10% in Inhibition? COc1cccc(NC(=O)Cn2nc3c4c5c(sc4ncn3c2=O)CCCC5)c1
Result: t

Task: Strictly below -10% in Inhibition? CSc1cccc(NC(=O)Cn2nc3c(SCc4ccc(Cl)cc4)nccn3c2=O)c1
Result: t

Task: Strictly below -10% in Inhibition? CC(C)c1nnc2c(SCC(=O)Nc3ccccc3Br)nc3ccccc3n12
Result: f

Task: Strictly below -10% in Inhibition? COc1cccc(NC(=O)Cn2nc3c(Sc4ccccc4)nccn3c2=O)c1
Result: f

Task: Strictly below -10% in Inhibition? CCCCOc1ccc(-c2cc3c4nnc(SCC(=O)Nc5cccc(C#N)c5)n4ccn3n2)cc1
Result: t

Task: Strictly below -10% in Inhibition? CCCCn1c(=O)c2sccc2n2c(CCC(=O)Nc3ccc(OC(F)(F)F)cc3)nnc12
Result: t

Task: Strictly below -10% in Inhibition? COc1ccccc1N1CCN(C(=O)CSc2nc3ccccc3n3cnnc23)CC1
Result: f

Task: Strictly below -10% in Inhibition? Cc1nnc2c(SCC(=O)Nc3ccc(C#N)cc3)nc3ccccc3n12
Result: t

Task: Strictly below -10% in Inhibition? COc1ccc(CNC(=O)Cn2nc3c(SCc4ccc(Cl)cc4)nccn3c2=O)cc1
Result: t

Task: Strictly below -10% in Inhibition? Cc1ccc(CN(c2ccc(C(C)C)cc2)S(=O)(=O)c2cccn3cnnc23)cc1
Result: t

Task: Strictly below -10% in Inhibition? CC(C)Sc1ccc2nn(CC(=O)Nc3ccc(F)cc3Cl)c(=O)n2n1
Result: f

Task: Strictly below -10% in Inhibition? Cc1cc(C)cc(Nc2nc(C)cc3nn(CC(=O)Nc4ccc(F)cc4F)c(=O)n23)c1
Result: f

Task: Strictly below -10% in Inhibition? O=C(Cn1nc2c3cc(-c4ccc(Cl)cc4)nn3ccn2c1=O)N1CCN(c2ccccc2)CC1
Result: t

Task: Strictly below -10% in Inhibition? O=C(NCc1ccccc1)c1ccc2nn(CC(=O)N3CCN(c4ccccc4F)CC3)c(=O)n2c1
Result: t

Task: Strictly below -10% in Inhibition? Cc1cc(Nc2ccc(F)cc2)nc2nn(CCc3ccccc3)c(=O)n12
Result: t

Task: Strictly below -10% in Inhibition? COCCCNC(=O)CSc1nnc2c(=O)n(Cc3ccccc3F)ccn12
Result: t

Task: Strictly below -10% in Inhibition? CCOc1ccc(N(Cc2cccc(F)c2)S(=O)(=O)c2ccc3nncn3c2)cc1
Result: f

Task: Strictly below -10% in Inhibition? CC(C)c1nnc2c(=O)n(CC(=O)Nc3ccccc3)c3ccccc3n12
Result: t

Task: Strictly below -10% in Inhibition? CC(C)NC(=O)Cn1nc2n(Cc3ccco3)c(=O)c3sccc3n2c1=O
Result: f

Task: Strictly below -10% in Inhibition? Cc1ccc(C)c(NC(=O)Cn2nc3c(Sc4ccccc4)nccn3c2=O)c1
Result: f

Task: Strictly below -10% in Inhibition? O=C(Cn1nc2c(SCc3ccccc3)nccn2c1=O)NCc1ccccc1
Result: t

Task: Strictly below -10% in Inhibition? O=C(CSc1nnc2c(=O)n(-c3ccccc3)ccn12)Nc1cc(F)ccc1F
Result: t
